molecular target: CRF2R (Homo sapiens, UniProt Q13324); test: CRF2R agonist activation (EC50 / Emax), called comparative CRF binding; format: cell-based; conditions: read-out: CRF2R Emax
Ends that are not written are not given here.
Label 1 for high-side Emax (at or above 8%) and 0 for low-side Emax (below it).

# substance, cat
data = [
    ("SQEPPISLDLPLELLREVLEMTKADQLAQQAHSNRKLLDIA-NH2 [compound 89]", 1),
    ("SQEPPISLDLPTYLLREVLEMTKADQLAQQAHSNRKLLDIA-NH2 [compound 106]", 0),
    ("NDDPPISIDLPFQLLRNMIEMARIENEREQAGLNAKYLAEV-NH2 [compound 258]", 1),
    ("SQEPPISLDLPTHLLREVLEMTKADQLAQQAHSNRKLLDIA-NH2 [compound 99]", 0),
    ("SQEPPISLDLPTELLREVLEMTKADQLAQQAHSNRKIIDIA-NH2 [compound 92]", 1),
    ("SQEPPISLDLPLQLLREVLEMTKADQLAQQAHSNRKLLDIA-NH2 [compound 95]", 1),
    ("NDDPPISIDLPLILLRNMIEMARIENEREQAGLNAKYLAEV-NH2 [compound 269]", 1),
    ("SQEPPISLDLPTGLLREVLEMTKADQLAQQAHSNRKLLDIA-NH2 [compound 98]", 0),
    ("SQEPPISLDLPFELLREVLEMTKADQLAQQAHSNRKLLDIA-NH2 [compound 97]", 0),
    ("NDDPPISIDLPLHLLRNMIEMARIENEREQAGLNAKYLAEV-NH2 [compound 259]", 1),
    ("SQEPPISLDLTIHLLREVLEMTKADQLAQQAHSNRKLLDIA-NH2 [compound 87]", 1),
    ("SQEPPISLDLPIGLLREVLEMTKADQLAQQAHSNRKLLDIA-NH2 [compound 93]", 0),
    ("SQEPPISLDLPFYLLREVLEMTKADQLAQQAHSNRKLLDIA-NH2 [compound 96]", 1),
    ("NDDPPISIDLPYYLLRNMIEMARIENEREQAGLNAKYLAEV-NH2 [compound 267]", 1),
    ("SQEPPISLDLPFQLLREVLEMTKADQLAQQAHSNRKLLDIA-NH2 [compound 91]", 0),
]

###

The entries below are paired with their reported pEC50.
target: CRF2R (Homo sapiens, UniProt Q13324); assay: CRF2R agonist activation (EC50 / Emax), called comparative CRF binding; assay type: cell-based; conditions: read-out: CRF2R EC50
pEC50: −log10 of the molar value. Ends that are not written are not given here.

# substance, pEC50
measured = [
    ("NDDPPISIDLPFLLLRNMIEMARIENEREQAGLNAKYLAEV-NH2 [compound 260]", "≤ 7.00"),
    ("NDDPPISIDLPLYLLRNMIEMARIENEREQAGLNAKYLAEV-NH2 [compound 271]", 7.32),
    ("SQEIVLSLDVPIGLLREVLEMTKADQLAQQAHSNRKLLDIA-NH2 [compound 7]", "≤ 7.00"),
]

###

Biological target: CRF2R (Homo sapiens)
Sequence (Q13324 1-411): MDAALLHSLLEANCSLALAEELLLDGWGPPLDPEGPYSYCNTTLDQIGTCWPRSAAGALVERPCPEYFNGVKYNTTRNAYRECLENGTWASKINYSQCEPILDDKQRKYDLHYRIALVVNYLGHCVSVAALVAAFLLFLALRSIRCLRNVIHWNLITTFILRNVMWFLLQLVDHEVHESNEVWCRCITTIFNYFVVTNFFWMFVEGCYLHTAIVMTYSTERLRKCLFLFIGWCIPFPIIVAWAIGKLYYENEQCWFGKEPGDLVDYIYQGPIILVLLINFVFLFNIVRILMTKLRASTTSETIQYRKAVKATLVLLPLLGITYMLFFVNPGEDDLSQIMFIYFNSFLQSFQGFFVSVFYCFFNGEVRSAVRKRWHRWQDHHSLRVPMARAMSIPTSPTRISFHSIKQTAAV
Assay: CRF2R agonist activation (EC50 / Emax), called comparative CRF binding
Type: cell-based
Conditions: read-out: CRF2R Emax
Method: The pharmacological activity and selectivity of the peptides of present invention can be determined using published test procedures. See, e.g, U.S. patent application Ser. No. 09/799,978 (now issued U.S. Pat. No. 6,670,140). […] In one example, cAMP induction is measured with the use of DNA constructs containing the cAMP responsive element linked to any of a variety of reporter genes can be introduced into cells expressing CRFRs. […]
Ends that are not written are not given here.
Label Satisfied for high-side Emax (at or above 20%) and Not satisfied for low-side Emax (below it).

# substance, system.tested, cat
records = [
    ("NDDPPISIDLPLQLLRNMIEMARIENEREQAGLNAKYLAEV-NH2 [compound 270]", "CRF2R (Homo sapiens)", "Not satisfied"),
    ("NDDPPISIDLPLFLLRNMIEMARIENEREQAGLNAKYLAEV-NH2 [compound 257]", "CRF2R (Homo sapiens)", "Satisfied"),
    ("SEEPPISLDLTFHLLREVLEMARAEQLAQQAHTNARILARV-NH2 [compound 161]", "CRF2R (Homo sapiens)", "Satisfied"),
    ("SQEPPISLDLPLHLLREVLEMTKADQLAQQAHSNRKLLDIA-NH2 [compound 102]", "CRF2R (Homo sapiens)", "Not satisfied"),
    ("NDDPPISIDLPFLLLRNMIEMARIENEREQAGLNAKYLAEV-NH2 [compound 260]", "CRF2R (Homo sapiens)", "Satisfied"),
    ("SQEPPISLDLPIHLLREVLEMTKADQLAQQAHSNRKLLDIA-NH2 [compound 94]", "CRF2R (Homo sapiens)", "Not satisfied"),
    ("SQEPPISLDLPLYLLREVLEMTKADQLAQQAHSNRKLLDIA-NH2 [compound 101]", "CRF2R (Homo sapiens)", "Not satisfied"),
    ("SQEPPISLDLPFGLLREVLEMTKADQLAQQAHSNRKLLDIA-NH2 [compound 103]", "CRF2R (Homo sapiens)", "Not satisfied"),
    ("SQEPPISLDLPTQLLREVLEMTKADQLAQQAHSNRKLLDIA-NH2 [compound 105]", "CRF2R (Homo sapiens)", "Not satisfied"),
    ("SQEPPISLDLPLGLLREVLEMTKADQLAQQAHSNRKLLDIA-NH2 [compound 90]", "CRF2R (Homo sapiens)", "Not satisfied"),
    ("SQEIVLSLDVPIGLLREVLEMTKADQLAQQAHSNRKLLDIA-NH2 [compound 152]", "CRF2R (Homo sapiens)", "Not satisfied"),
    ("SQEPPISLDLTFHLLREVLEQARARAAREQATTNARILARV-NH2 [compound 157]", "CRF2R (Homo sapiens)", "Satisfied"),
    ("NDDPPISIDLPLLLLRNMIEMARIENEREQAGLNAKYLAEV-NH2 [compound 268]", "CRF2R (Homo sapiens)", "Satisfied"),
    ("NDDPPISIDLPQYLLRNMIEMARIENEREQAGLNAKYLAEV-NH2 [compound 265]", "CRF2R (Homo sapiens)", "Satisfied"),
    ("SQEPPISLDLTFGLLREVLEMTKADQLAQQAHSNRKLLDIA-NH2 [compound 88]", "CRF2R (Homo sapiens)", "Not satisfied"),
    ("NDDPPISIDLPFHLLRNMIEMARIENEREQAGLNAKYLAEV-NH2 [compound 262]", "CRF2R (Homo sapiens)", "Satisfied"),
    ("NDDPPISIDLPFYLLRNMIEMARIENEREQAGLNAKYLAEV-NH2 [compound 261]", "CRF2R (Homo sapiens)", "Satisfied"),
    ("HHHHHHIVLSLDVPIGLLQILLEQARARAAREQATTNARILARN-NH2 [compound 296]", "CRF2R (Homo sapiens)", "Satisfied"),
]

###

target: CRF1R (Homo sapiens, UniProt P34998); test: CRF1R agonist activation (EC50 / Emax), called comparative CRF binding; type: cell-based; conditions: read-out: CRF1R Emax
Sequence (P34998 24-415): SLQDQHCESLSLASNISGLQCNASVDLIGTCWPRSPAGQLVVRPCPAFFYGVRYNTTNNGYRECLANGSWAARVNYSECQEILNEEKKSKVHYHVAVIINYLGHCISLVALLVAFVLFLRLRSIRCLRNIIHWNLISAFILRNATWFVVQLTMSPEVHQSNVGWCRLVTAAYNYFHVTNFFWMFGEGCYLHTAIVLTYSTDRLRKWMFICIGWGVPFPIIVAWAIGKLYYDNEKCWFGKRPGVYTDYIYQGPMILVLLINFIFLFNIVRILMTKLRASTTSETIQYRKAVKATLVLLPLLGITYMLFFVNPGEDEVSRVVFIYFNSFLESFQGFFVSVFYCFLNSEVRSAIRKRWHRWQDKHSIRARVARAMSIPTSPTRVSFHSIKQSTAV
Ends that are not written are not given here.
Label true (1) for high-side Emax (at or above 8%) and false (0) for low-side Emax (below it).

# substance, cat
measured = [
    ("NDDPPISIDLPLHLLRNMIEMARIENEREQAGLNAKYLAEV-NH2 [compound 259]", "true (1)"),
    ("SQEPPISLDLTIGLLREVLEMTKADQLAQQAHSNRKLLDIA-NH2 [compound 86]", "false (0)"),
    ("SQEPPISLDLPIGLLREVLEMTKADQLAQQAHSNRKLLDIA-NH2 [compound 93]", "false (0)"),
    ("SEEPPISLDVPIGLLQEVLEMARAEQLAQQAHSNRKLMEII-NH2 [compound 162]", "true (1)"),
    ("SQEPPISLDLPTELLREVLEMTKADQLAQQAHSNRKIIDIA-NH2 [compound 92]", "false (0)"),
    ("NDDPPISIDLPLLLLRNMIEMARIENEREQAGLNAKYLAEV-NH2 [compound 268]", "true (1)"),
    ("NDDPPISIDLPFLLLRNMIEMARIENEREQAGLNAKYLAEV-NH2 [compound 260]", "true (1)"),
    ("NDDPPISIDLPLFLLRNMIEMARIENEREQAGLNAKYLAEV-NH2 [compound 257]", "true (1)"),
]
